We begin with a simple list: items and their reported IC50 (amount of compound to achieve 50% inhibition of prolyl endopeptidase).
system: prolyl endopeptidase (Elizabethkingia meningoseptica)
Sequence (P27028 21-705): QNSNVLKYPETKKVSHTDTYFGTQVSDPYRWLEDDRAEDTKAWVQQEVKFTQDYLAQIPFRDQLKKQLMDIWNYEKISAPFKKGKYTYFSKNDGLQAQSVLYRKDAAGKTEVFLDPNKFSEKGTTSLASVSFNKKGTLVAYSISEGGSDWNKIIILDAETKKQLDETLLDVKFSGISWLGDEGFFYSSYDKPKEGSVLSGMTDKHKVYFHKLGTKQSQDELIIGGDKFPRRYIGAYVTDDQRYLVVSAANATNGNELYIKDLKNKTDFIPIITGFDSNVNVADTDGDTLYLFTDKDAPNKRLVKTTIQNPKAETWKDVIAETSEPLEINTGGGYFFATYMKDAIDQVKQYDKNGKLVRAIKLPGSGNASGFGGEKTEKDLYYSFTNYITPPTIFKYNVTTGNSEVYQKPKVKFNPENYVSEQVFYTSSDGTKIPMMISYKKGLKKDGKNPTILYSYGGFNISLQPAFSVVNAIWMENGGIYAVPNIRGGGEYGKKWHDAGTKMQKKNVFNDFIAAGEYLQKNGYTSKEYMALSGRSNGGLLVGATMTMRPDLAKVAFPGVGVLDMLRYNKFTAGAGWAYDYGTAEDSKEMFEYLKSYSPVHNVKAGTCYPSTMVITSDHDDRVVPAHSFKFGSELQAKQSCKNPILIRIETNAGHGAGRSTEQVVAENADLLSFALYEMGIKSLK
experimental-details: Measurement of anti-prolyl endopeptidase activity
Assay type: biochemical
test-settings: substrate Z-glycyl-proline-β-naphthylamide, 0.1M phosphate buffer pH 7.06, absorbance at 410 nm
The answer is to be given in μg/test tube; state only the numeric part.

| compound | observed-measurement |
| --- | --- |
| COc1ccc(CCCC(=O)N2CCCC2C=O)cc1 (stereo not drawn) | 0.05 |
| O=CC1CCCN1C(=O)CCCc1ccc(Cl)cc1 (stereo not drawn) | 1.5 |
| COc1ccc(CCC(=O)N2CCCC2C=O)cc1 (stereo not drawn) | 1.0 |

Requested field: IC50 (amount of compound to achieve 50% inhibition of prolyl endopeptidase). Item: COC(=O)C1CCCN1C(=O)CCc1ccc(OC)cc1 (stereo not drawn)
51

Requested field: IC50 (amount of compound to achieve 50% inhibition of prolyl endopeptidase). Item: COC(=O)C1CCCN1C(=O)Cc1ccc(OC)cc1 (stereo not drawn)
80

Requested field: IC50 (amount of compound to achieve 50% inhibition of prolyl endopeptidase). Item: O=CC1CCCN1C(=O)CCOc1ccccc1 (stereo not drawn)
2.5

Requested field: IC50 (amount of compound to achieve 50% inhibition of prolyl endopeptidase). Item: O=CC1CCCN1C(=O)CCc1ccc(Cl)cc1 (stereo not drawn)
1.0

Requested field: IC50 (amount of compound to achieve 50% inhibition of prolyl endopeptidase). Item: COC(=O)C1CCCN1C(=O)CCCc1ccc(Cl)cc1 (stereo not drawn)
50

Requested field: IC50 (amount of compound to achieve 50% inhibition of prolyl endopeptidase). Item: COC(=O)C1CCCN1C(=O)CCC(=O)c1ccccc1 (stereo not drawn)
200

Requested field: IC50 (amount of compound to achieve 50% inhibition of prolyl endopeptidase). Item: CCC(C(=O)N1CCCC1C(=O)OC)c1ccccc1 (stereo not drawn)
510

###

We begin with a simple list: items and their reported Avoidance time 24 hrs. later.
System: experimental amnesia caused in rats by scopolamine
experimental-details: Preventive effect against experimental amnesia caused in rats by scopolamine (passive avoidance learning, intraperitoneal administration)
Assay type: in vivo, Wister male rats
test-settings: 1 mg/kg i.p.; scopolamine 3 mg/kg i.p. after learning; 24 hrs. later
The answer is to be given in s; state only the numeric part.

| compound | observed-measurement |
| --- | --- |
| O=CC1CCCN1C(=O)CCC(=O)c1ccccc1 (centres unmarked) | 300.0 |
| COc1ccc(CCC(=O)N2CCCC2C=O)cc1 (centres unmarked) | 198.2 |
| O=CC1CCCN1C(=O)Cc1ccc(Cl)cc1 (centres unmarked) | 223.1 |
| O=CC1CCCN1C(=O)CC(c1ccccc1)c1ccccc1 (centres unmarked) | 284.6 |
| O=CC1CCCN1C(=O)CCC(c1ccccc1)c1ccccc1 (centres unmarked) | 232.8 |
| COc1ccc(CCCC(=O)N2CCCC2C=O)cc1 (centres unmarked) | 300.0 |

Requested field: Avoidance time 24 hrs. later. Item: CCC(C(=O)N1CCCC1C=O)c1ccccc1 (centres unmarked)
268.4

Requested field: Avoidance time 24 hrs. later. Item: COc1ccc(/C=C/C(=O)N2CCCC2C=O)cc1 (centres unmarked)
204.5

###

system: prolyl endopeptidase (Elizabethkingia meningoseptica)
experimental-details: Measurement of anti-prolyl endopeptidase activity
Format: biochemical
test-settings: substrate Z-glycyl-proline-β-naphthylamide, 0.1M phosphate buffer pH 7.06, absorbance at 410 nm
We begin with a simple list: items and their reported IC50 (amount of compound to achieve 50% inhibition of prolyl endopeptidase).
The answer is to be given in μg/test tube; state only the numeric part.

Check out these entries, answers already filled in.
| compound | unit-of-measure | observed-measurement |
| --- | --- | --- |
| O=CC1CCCN1C(=O)CCC(c1ccccc1)c1ccccc1 (stereo not shown) | μg/test tube | 0.35 |
| COc1ccc(CC(=O)N2CCCC2C=O)cc1 (stereo not shown) | μg/test tube | 3.0 |
| COC(=O)C1CCCN1C(=O)CC(c1ccccc1)c1ccccc1 (stereo not shown) | μg/test tube | 250 |

Requested field: IC50 (amount of compound to achieve 50% inhibition of prolyl endopeptidase). Item: COC(=O)[C@@H]1CCCN1C(=O)CCOc1ccccc1
60

Requested field: IC50 (amount of compound to achieve 50% inhibition of prolyl endopeptidase). Item: CC(CCc1ccccc1)C(=O)N1CCCC1C=O (stereo not shown)
1.0

Requested field: IC50 (amount of compound to achieve 50% inhibition of prolyl endopeptidase). Item: COC(=O)C1CCCN1C(=O)CCc1ccc(Cl)cc1 (stereo not shown)
30

Requested field: IC50 (amount of compound to achieve 50% inhibition of prolyl endopeptidase). Item: COC(=O)C1CCCN1C(=O)C(C)CCc1ccccc1 (stereo not shown)
80

Requested field: IC50 (amount of compound to achieve 50% inhibition of prolyl endopeptidase). Item: CCC(C(=O)N1CCCC1C=O)c1ccccc1 (stereo not shown)
0.2

Requested field: IC50 (amount of compound to achieve 50% inhibition of prolyl endopeptidase). Item: COC(=O)C1CCCN1C(=O)Cc1ccc(Cl)cc1 (stereo not shown)
72

Requested field: IC50 (amount of compound to achieve 50% inhibition of prolyl endopeptidase). Item: O=CC1CCCN1C(=O)CC(c1ccccc1)c1ccccc1 (stereo not shown)
0.1
